- Test system: F380Y
- testDescription: modulators of BK channel variants, profiling panel, selectivity assay, cell-based, U2OS BacMam, thallium flux, beta subunits (AID 1259406);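 further: initial slope of Thallos dye fluorescence rise after thallium is added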
- conditionInfo: at 30 µM
Activity calls are given as the source filed them.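 How the source made its calls: active means thallium flux through the channel raised or lowered by more than 3 SD from vehicle-only wells, actives on both sides; inactive means the rest.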
Possible outcomes: active, inactive

{"columns": ["compound", "qualitativeLabel"],
 "data": [
  ["CC(C)NCC(O)COc1ccc(CC(N)=O)cc1 (configuration not stated)", "inactive"],
  ["CS(=O)(=O)c1ccc(C2=C(c3ccccc3)C(=O)OC2)cc1", "inactive"],
  ["CC(=O)O[C@]1(C(C)=O)CC[C@H]2[C@@H]3C[C@H](C)C4=CC(=O)CC[C@]4(C)[C@H]3CC[C@@]21C", "inactive"],
  ["CON=C(C(=O)NC1C(=O)N2C(C(=O)O)=C(COC(C)=O)CSC12)c1csc(N)n1 (configuration not stated)", "inactive"],
  ["CN(C)C(=O)C(CCN1CCC(O)(c2ccc(Cl)cc2)CC1)(c1ccccc1)c1ccccc1", "active"],
  ["Clc1ccccc1CN1CCc2sccc2C1", "active"],
  ["CCc1ccc(CCOc2ccc(CC3SC(=O)NC3=O)cc2)nc1 (configuration not stated)", "inactive"],
  ["O=C(O)CCc1nc(-c2ccccc2)c(-c2ccccc2)o1", "inactive"],
  ["C#C[C@]1(OC(C)=O)CC[C@H]2[C@@H]3CCC4=CC(=O)CC[C@@H]4[C@H]3CC[C@@]21C", "inactive"],
  ["CN1C(=O)CC[C@H]1c1cccnc1", "inactive"],
  ["CC(C)(C(=O)O)c1ccc(C(O)CCCN2CCC(C(O)(c3ccccc3)c3ccccc3)CC2)cc1 (configuration not stated)", "active"],
  ["CC(C)NCC(O)COc1cccc2[nH]ccc12 (configuration not stated)", "inactive"],
  ["C[C@H]1COc2c(N3CCN(C)CC3)c(F)cc3c(=O)c(C(=O)O)cn1c23", "inactive"],
  ["C[N+]1(C)CCCC(OC(=O)C(O)(c2ccccc2)c2ccccc2)C1 (configuration not stated)", "inactive"],
  ["CC(=O)N=c1sc(S(N)(=O)=O)nn1C", "inactive"],
  ["CCC(=O)OCC(=O)[C@@]1(OC(=O)CC)[C@@H](C)C[C@H]2[C@@H]3CCC4=CC(=O)C=C[C@]4(C)[C@@]3(Cl)[C@@H](O)C[C@@]21C", "active"],
  ["CNCCC=C1c2ccccc2CCc2ccccc21", "active"],
  ["CC1(C)S[C@@H]2[C@H](NC(=O)[C@H](N)c3ccc(O)cc3)C(=O)N2[C@H]1C(=O)O", "inactive"],
  ["CC(CCc1ccccc1)NCC(O)c1ccc(O)c(C(N)=O)c1 (configuration not stated)", "inactive"],
  ["CC1=C(/C=C/C(C)=C/C=C/C(C)=C\\C(=O)O)C(C)(C)CCC1", "inactive"],
  ["O=C(Nc1ccc(Oc2ccc(OC(F)(F)F)cc2)cc1)c1ccco1", "active"],
  ["CC(=O)OCC(=O)[C@@]1(O)CC[C@H]2[C@@H]3CCC4=CC(=O)CC[C@]4(C)[C@H]3[C@@H](O)C[C@@]21C", "inactive"],
  ["COC(=O)C1=C(C)NC(C)=C(C(=O)OCCN(C)Cc2ccccc2)C1c1cccc([N+](=O)[O-])c1 (configuration not stated)", "inactive"],
  ["COc1ccc2cc([C@H](C)C(=O)O)ccc2c1", "inactive"],
  ["CCN1CCN(C(=O)N[C@@H](C(=O)N[C@@H]2C(=O)N3[C@@H]2SC(C)(C)[C@@H]3C(=O)O)c2ccccc2)C(=O)C1=O", "inactive"],
  ["CC1(C)SC2C(NC(=O)COc3ccccc3)C(=O)N2C1C(=O)O (configuration not stated)", "inactive"],
  ["OC[C@H]1O[C@@H](Oc2cc(O)cc(/C=C/c3ccc(O)cc3)c2)[C@H](O)[C@@H](O)[C@@H]1O", "inactive"],
  ["CC(=O)OCC(=O)[C@@]1(O)CC[C@H]2[C@@H]3C[C@H](C)C4=CC(=O)C=C[C@]4(C)[C@H]3[C@@H](O)C[C@@]21C", "inactive"],
  ["CC[C@H]1OC(=O)[C@H](C)[C@@H](O[C@H]2C[C@@](C)(OC)[C@@H](O)[C@H](C)O2)[C@H](C)[C@@H](O[C@@H]2O[C@H](C)C[C@H](N(C)C)[C@H]2O)[C@](C)(OC)C[C@@H](C)C(=O)[C@H](C)[C@@H](O)[C@]1(C)O", "inactive"],
  ["COc1ccc(/C=C/C(=O)Nc2ccccc2C(=O)O)cc1OC", "inactive"],
  ["O=C(O)COCCN1CCN(C(c2ccccc2)c2ccc(Cl)cc2)CC1 (configuration not stated)", "inactive"],
  ["CC(C)NCC(O)COc1cccc2ccccc12 (configuration not stated)", "inactive"],
  ["CN1CCN(C2=Nc3cc(Cl)ccc3Nc3ccccc32)CC1", "active"],
  ["CCCCC(=O)O[C@H]1CC[C@H]2[C@@H]3CCc4cc(O)ccc4[C@H]3CC[C@]12C", "inactive"],
  ["CC(C)[N+]1(C)C2CCC1CC(OC(=O)C(CO)c1ccccc1)C2 (configuration not stated)", "inactive"],
  ["CCn1cc(C(=O)O)c(=O)c2ccc(C)nc21", "inactive"],
  ["C[C@H](CCC(=O)O)[C@H]1CC[C@H]2[C@@H]3[C@@H](O)C[C@@H]4C[C@H](O)CC[C@]4(C)[C@H]3CC[C@]12C", "inactive"]
]}
